system: NCI-H1299; test: cells; assay type: functional, cell-based, Homo sapiens; conditions: Homo sapiens, NCI-H1299;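 note: growth inhibition of human NCI-H1299 cells, read out by a cell viability assay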
Description: SANGER: Inhibition of human NCI-H1299 cell growth in a cell viability assay.
Field: IC50. Provide a value for each of the compounds that follow.
Number in µM, nothing else.

[ask] I'd like to know its IC50. The compound in question is COc1cc([C@@H]2c3cc4c(cc3[C@@H](O[C@@H]3O[C@@H]5CO[C@@H](C)O[C@H]5[C@H](O)[C@H]3O)[C@H]3COC(=O)[C@H]23)OCO4)cc(OC)c1O [ETOPOSIDE]
[reply] 2.07

[ask] I'd like to know its IC50. The compound in question is `COC(=O)CNC(=O)C(=O)OC`
[reply] 2150

[ask] I'd like to know its IC50. The compound in question is Nc1ccn([C@@H]2O[C@H](CO)[C@@H](O)[C@@H]2O)c(=O)n1 [CYTARABINE]
[reply] 0.672

====

test system: A-375; assay: cells; assay type: functional, cell-based, Homo sapiens; conditions: Homo sapiens, A-375;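 note: growth inhibition of A375 cells, read out with a cell viability assay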
Description: SANGER: Inhibition of human A375 cell growth in a cell viability assay.
experimentalReadout: IC50 (nM)
Number in nM, nothing else.

[ask] I'd like to know its IC50. The compound in question is COc1ccc(-c2ccc3c(N4CCOC[C@@H]4C)nc(N4CCOC[C@@H]4C)nc3n2)cc1CO [AZD-8055]
[reply] 752

[ask] I'd like to know its IC50. The compound in question is C=CCc1cccc(/C=N/NC(=O)CN2CCN(Cc3ccccc3)CC2)c1O [PAC-1]
[reply] 869

[ask] I'd like to know its IC50. The compound in question is `COC(=O)CNC(=O)C(=O)OC`
[reply] 176000

====

tested on: UMC-11; assay: cells; type: functional, cell-based, Homo sapiens; details: umc-11
Description: SANGER: Inhibition of human UMC-11 cell growth in a cell viability assay.
experimentalReadout: IC50

[ask] Give the reported IC50 for `Cc1cc([C@@H](C)Nc2ccccc2C(=O)O)c2nc(N3CCOCC3)cc(=O)n2c1` (system: UMC-11).
[reply] > 5.12 µM

====

test system: MHH-NB-11; assay: cells; assay type: functional, cell-based, Homo sapiens; conditions: Homo sapiens, MHH-NB-11
Description: SANGER: Inhibition of human MHH-NB-11 cell growth in a cell viability assay.
Field: IC50. Provide a value for each of the molecules that follow.

[ask] I'd like to know its IC50. The molecule in question is CO[C@H]1C[C@@H]2CC[C@@H](C)[C@@](O)(O2)C(=O)C(=O)N2CCCC[C@H]2C(=O)O[C@H]([C@H](C)C[C@@H]2CC[C@@H](O)[C@H](OC)C2)CC(=O)[C@H](C)/C=C(\C)[C@@H](O)[C@@H](OC)C(=O)[C@H](C)C[C@H](C)/C=C/C=C/C=C/1C [SIROLIMUS]
[reply] > 100 nM

[ask] I'd like to know its IC50. The molecule in question is C=CCc1cccc(/C=N/NC(=O)CN2CCN(Cc3ccccc3)CC2)c1O [PAC-1]
[reply] > 2560 nM

[ask] I'd like to know its IC50. The molecule in question is O=C(c1cc(Cc2n[nH]c(=O)c3ccccc23)ccc1F)N1CCN(C(=O)C2CC2)CC1 [OLAPARIB]
[reply] > 5000 nM

[ask] I'd like to know its IC50. The molecule in question is CS(=O)(=O)CCNCc1ccc(-c2ccc3ncnc(Nc4ccc(OCc5cccc(F)c5)c(Cl)c4)c3c2)o1 [LAPATINIB]
[reply] > 2000 nM

[ask] I'd like to know its IC50. The molecule in question is CC(=O)O[C@@]12CO[C@@H]1C[C@H](O)[C@@]1(C)C(=O)[C@H](O)C3=C(C)[C@@H](OC(=O)[C@H](O)[C@@H](NC(=O)OC(C)(C)C)c4ccccc4)C[C@@](O)([C@@H](OC(=O)c4ccccc4)[C@H]21)C3(C)C [DOCETAXEL]
[reply] > 10 nM

[ask] I'd like to know its IC50. The molecule in question is Cc1cnc(-c2cnc(NCCNc3ccc(C#N)cn3)nc2-c2ccc(Cl)cc2Cl)[nH]1 [LADUVIGLUSIB]
[reply] > 2560 nM
